# testedOn: T1, Recombinant cynomolgus IL-18 (cynomolgus monkey, UniProt Q14116 37-193 (human entry))
# T1 construct: also called cm IL-18; Cyno IL-18
# T1 chain: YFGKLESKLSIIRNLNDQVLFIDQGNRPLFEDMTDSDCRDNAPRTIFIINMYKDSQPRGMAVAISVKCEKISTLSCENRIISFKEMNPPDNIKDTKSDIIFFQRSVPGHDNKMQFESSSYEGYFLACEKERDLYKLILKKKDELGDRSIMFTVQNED
# assayOverview: solution equilibrium titration (SET), ECL detection; value in brackets = cynomolgus IL-18; bracketed value
Please provide measured pKd for the entries that follow.
In plain terms, pKd is the concentration in mol/L turned into minus its base-10 logarithm.

Entry MOR10222_E1Q_N30S_M54I (antibody, human IgG1, lambda, L234A L235A, V domains shown) VH: QVQLVQSGAEVKKPGSSVKVSCKASGGTFSSYAISWVRQAPGQGLEWMGNIIPITGQTYYAQKFQGRVTITADESTSTAYMELSSLRSEDTAVYYCARAAYHPLVFDNWGQGTLVTVSS VL: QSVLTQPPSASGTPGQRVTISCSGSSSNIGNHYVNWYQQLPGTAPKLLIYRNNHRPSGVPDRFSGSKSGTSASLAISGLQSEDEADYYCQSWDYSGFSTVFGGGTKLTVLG — recorded pKd = 10.52

For MOR13341 (antibody, human IgG1, kappa, L234A L235A, V domains shown) VH: QVQLVQSGAEVKKPGSSVKVSCKASGGTFSTFSISWVRQAPGQGLEWMGGIIPIFGTANYAQKFQGRVTITADESTSTAYMELSSLRSEDTAVYYCARGGYGGYYYFDYWGQGTLVTVSS VL: DIQMTQSPSSLSASVGDRVTITCRASQSISNRLNWYQQKPGKAPKLLIYKGSTLQSGVPSRFSGSGSGTDFTLTISSLQPEDFATYYCQQHKVWLTTFGQGTKVEIKR the binder record lists pKd as 10.52

pKd reported for this binder MOR13363 (antibody, human IgG1, kappa, L234A L235A, V domains shown) VH: QVQLLESGGGLVQPGGSLRLSCAASGFTFSSYAIHWVRQAPGKGLEWVSVISGEGSNTYYADSVKGRFTISRDNSKNTLYLQMNSLRAEDTAVYYCARVMIGYGFDYWGQGTLVTVSS VL: DIQMTQSPSSLSASVGDRVTITCRASQSIFNYLNWYQQKPGKAPKLLIYDSSTLQSGVPSRFSGSGSGTDFTLTISSLQPEDFATYYCLQYSGFLFTFGQGTKVEIKR : 11.00

Value of pKd reported for the binder MOR13361 (antibody, human IgG1, kappa, L234A L235A, V domains shown) VH: QVQLLESGGGLVQPGGSLRLSCAASGFTFSSYAIHWVRQAPGKGLEWVSTIQSSGENKFYADSVKGRFTISRDNSKNTLYLQMNSLRAEDTAVYYCARVMIGYGFDYWGQGTLVTVSS VL: DIQMTQSPSSLSASVGDRVTITCRASQSIFNYLNWYQQKPGKAPKLLIYDSSTLQSGVPSRFSGSGSGTDFTLTISSLQPEDFATYYCHQYSGLLFTFGQGTKVEIKR is 11.22
